Reported IC50 for target or system Angiotensin-converting enzyme (Oryctolagus cuniculus), by entry.
PARAMETER MEASURED: IC50 (nM)

{"columns": ["COMPOUND", "IC50 (nM)"],
 "data": [
  ["Cc1cccc(N(CC(=O)O)C(=O)C(C)CS)c1 (configuration not stated)", 19],
  ["CC(CS)C(=O)N(CC(=O)O)C(C)C (configuration not stated)", 72]
]}

I: CC(=O)SCC(C)C(=O)N(CC(=O)O)C(C)C (configuration not stated)
II: CC(=O)SCC(C)C(=O)N(CC(=O)O)C1CC1 (configuration not stated)
III: CC(CS)C(=O)N(C)CC(=O)O (configuration not stated)
IV: CC(=O)SCC(C)C(=O)N(CC(=O)O)C1Cc2ccccc2C1 (configuration not stated)
V: CC(CS)C(=O)N(CC(=O)O)C1CCC1 (configuration not stated)
List these items ordered by IC50, big to small. List the labels according to the requested ordering.
I, II, IV, III, V

---

MEASURED TARGET: Angiotensin-converting enzyme (Rattus norvegicus)
Sequence (whole entry): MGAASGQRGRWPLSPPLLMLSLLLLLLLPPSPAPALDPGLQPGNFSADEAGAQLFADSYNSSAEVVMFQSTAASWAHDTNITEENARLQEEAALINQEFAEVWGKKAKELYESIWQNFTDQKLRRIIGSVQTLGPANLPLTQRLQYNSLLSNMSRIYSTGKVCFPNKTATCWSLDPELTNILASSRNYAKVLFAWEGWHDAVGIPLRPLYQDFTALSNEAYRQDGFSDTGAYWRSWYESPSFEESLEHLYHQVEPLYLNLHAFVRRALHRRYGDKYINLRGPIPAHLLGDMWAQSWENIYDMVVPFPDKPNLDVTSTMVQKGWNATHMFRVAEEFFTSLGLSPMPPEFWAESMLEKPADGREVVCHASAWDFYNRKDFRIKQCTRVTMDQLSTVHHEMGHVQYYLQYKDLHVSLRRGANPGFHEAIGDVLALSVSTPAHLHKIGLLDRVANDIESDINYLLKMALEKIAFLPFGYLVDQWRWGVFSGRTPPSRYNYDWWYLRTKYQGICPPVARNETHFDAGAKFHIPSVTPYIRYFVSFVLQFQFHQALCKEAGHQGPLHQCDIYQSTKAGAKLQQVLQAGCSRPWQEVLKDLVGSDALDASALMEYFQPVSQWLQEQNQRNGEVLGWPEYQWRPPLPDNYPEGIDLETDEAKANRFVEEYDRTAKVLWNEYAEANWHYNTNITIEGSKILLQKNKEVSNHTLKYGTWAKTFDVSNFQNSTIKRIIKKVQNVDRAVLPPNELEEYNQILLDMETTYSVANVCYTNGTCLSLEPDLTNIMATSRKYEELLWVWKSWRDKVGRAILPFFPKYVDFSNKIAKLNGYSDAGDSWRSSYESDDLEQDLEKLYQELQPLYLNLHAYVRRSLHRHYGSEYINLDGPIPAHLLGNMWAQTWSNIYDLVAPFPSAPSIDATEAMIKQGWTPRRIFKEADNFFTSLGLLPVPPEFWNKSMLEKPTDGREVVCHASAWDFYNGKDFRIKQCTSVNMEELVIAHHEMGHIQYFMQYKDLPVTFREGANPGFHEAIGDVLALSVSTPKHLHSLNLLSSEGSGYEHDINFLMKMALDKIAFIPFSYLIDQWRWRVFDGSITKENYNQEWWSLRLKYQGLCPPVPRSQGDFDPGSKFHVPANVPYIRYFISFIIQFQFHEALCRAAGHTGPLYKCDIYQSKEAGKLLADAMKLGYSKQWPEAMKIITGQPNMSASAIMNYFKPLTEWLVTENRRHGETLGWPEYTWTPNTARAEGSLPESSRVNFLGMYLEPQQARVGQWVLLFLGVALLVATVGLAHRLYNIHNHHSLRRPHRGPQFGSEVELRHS
PROTOCOL SUMMARY: Peroral dose required to inhibit angiotensin I induced vasopressor response in normotensive conscious rats
Assay type: functional
PARAMETER MEASURED: ID50 (mg/kg)

{"columns": ["MOLECULE", "UNIT NAME", "ID50"],
 "data": [
  ["CC(CS)C(=O)N(CC(=O)O)C1Cc2ccccc2C1 (stereo unspecified)", "mg/kg", 0.15],
  ["C[C@@H](CSC(=O)C(C)(C)C)C(=O)N(CC(=O)O)C1CCCC1", "mg/kg", 25]
]}

a: CC(=O)SCC(C)C(=O)N(CC(=O)O)C1CCCCCC1 (stereo unspecified)
b: CC(CS)C(=O)N(CC(=O)O)C1CCCCC1 (stereo unspecified)
Compare a and b and name the one whose reported ID50 is smaller. Answer by quoting the chosen item's label.
a

a: CC(=O)SCC(C)C(=O)N(CC(=O)O)c1ccc(C)cc1 (stereo unspecified)
b: CC(CS)C(=O)N(CC(=O)O)C1CC2CCC1C2 (stereo unspecified)
Could you point out whether the larger ID50 belongs to a or to b ? // return label of chosen record
a

A: CC(CSC(=O)C(C)(C)C)C(=O)N(CC(=O)O)C1CCCC1 (stereo unspecified)
B: CCOC(=O)[C@H](CCc1ccccc1)N[C@@H](C)C(=O)N1CCC[C@H]1C(=O)O
C: CC(CS)C(=O)N(CC(=O)O)C1CCCCCC1 (stereo unspecified)
Order the entries by their reported ID50, beginning at the minimum. Answer format: list of labels, ordered as asked.
C, B, A

---

Test system Angiotensin-converting enzyme (Oryctolagus cuniculus), pIC50 listed for each of the compounds.
pIC50: −log10 of the molar value.
PARAMETER MEASURED: pIC50

Example results:
{"columns": ["COMPOUND", "pIC50"],
 "data": [
  ["CC(=O)SCC(C)C(=O)N(CC(=O)O)c1ccc(C(C)C)cc1 (centres undefined)", 7.22],
  ["CC(=O)SCC(C)C(=O)N(CC(=O)O)c1ccc2c(c1)CCC2 (centres undefined)", 7.32]
]}

A: CC(=O)SCC(C)C(=O)N(CC(=O)O)c1cc(C)cc(C)c1 (centres undefined)
B: CC(=O)SCC(C)C(=O)N(CC(=O)O)c1cccc(C)c1 (centres undefined)
Look at A and B . Which one has the lower recorded pIC50 number? Identify your selection by its label.
B
(B: 7.12, A: 7.36)

---

MEASURED TARGET: Angiotensin-converting enzyme (Oryctolagus cuniculus)
Sequence (P12822 whole entry): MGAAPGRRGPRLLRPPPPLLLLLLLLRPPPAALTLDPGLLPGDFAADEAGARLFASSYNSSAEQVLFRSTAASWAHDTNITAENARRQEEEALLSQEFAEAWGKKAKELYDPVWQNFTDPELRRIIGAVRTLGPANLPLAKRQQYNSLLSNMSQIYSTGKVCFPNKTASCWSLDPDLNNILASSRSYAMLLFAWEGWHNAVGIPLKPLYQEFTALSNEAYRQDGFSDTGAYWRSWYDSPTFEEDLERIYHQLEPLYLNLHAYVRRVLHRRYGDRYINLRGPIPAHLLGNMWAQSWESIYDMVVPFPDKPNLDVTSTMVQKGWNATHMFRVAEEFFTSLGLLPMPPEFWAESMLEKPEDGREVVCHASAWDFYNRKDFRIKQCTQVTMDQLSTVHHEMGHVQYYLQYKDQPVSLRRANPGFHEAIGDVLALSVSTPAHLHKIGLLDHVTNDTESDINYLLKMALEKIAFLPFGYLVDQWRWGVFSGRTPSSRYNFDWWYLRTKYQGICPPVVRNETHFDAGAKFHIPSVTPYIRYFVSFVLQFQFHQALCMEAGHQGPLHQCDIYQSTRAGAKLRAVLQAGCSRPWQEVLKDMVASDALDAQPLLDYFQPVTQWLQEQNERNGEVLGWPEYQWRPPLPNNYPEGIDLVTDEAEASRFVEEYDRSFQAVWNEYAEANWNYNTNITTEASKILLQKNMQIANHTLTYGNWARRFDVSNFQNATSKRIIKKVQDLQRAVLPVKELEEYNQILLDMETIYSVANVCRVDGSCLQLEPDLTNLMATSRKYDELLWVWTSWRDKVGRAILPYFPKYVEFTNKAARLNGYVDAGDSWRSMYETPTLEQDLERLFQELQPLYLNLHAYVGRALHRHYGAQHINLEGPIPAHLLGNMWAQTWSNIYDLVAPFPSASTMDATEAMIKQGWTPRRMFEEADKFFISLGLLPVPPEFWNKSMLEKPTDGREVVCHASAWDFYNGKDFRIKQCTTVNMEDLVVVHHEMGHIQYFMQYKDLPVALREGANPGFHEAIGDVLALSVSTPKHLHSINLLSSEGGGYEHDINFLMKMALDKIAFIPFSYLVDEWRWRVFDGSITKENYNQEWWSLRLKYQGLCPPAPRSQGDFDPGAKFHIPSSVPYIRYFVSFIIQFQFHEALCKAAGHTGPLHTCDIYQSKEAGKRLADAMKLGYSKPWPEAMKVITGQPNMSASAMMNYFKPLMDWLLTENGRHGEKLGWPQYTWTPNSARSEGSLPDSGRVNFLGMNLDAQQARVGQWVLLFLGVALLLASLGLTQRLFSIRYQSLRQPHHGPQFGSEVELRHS
pIC50: −log10 of the molar value.
PARAMETER MEASURED: pIC50

I: CC(CS)C(=O)NCC(=O)O (stereo not drawn)
II: Cc1cc(C)cc(N(CC(=O)O)C(=O)C(C)CS)c1 (stereo not drawn)
III: CC(S)C(=O)NCC(=O)O (stereo not drawn) [TIOPRONIN]
Lab note: rank above entries, pIC50 ascending. Reply format: the labels, ordered as requested.
III, I, II
(III: 5.72, I: 6.68, II: 7.36)

src = ChEMBL document CHEMBL1122934
